# STUDY SYSTEM: His-tagged KRAS G12D protein (Homo sapiens (Human), UniProt P01116, G12D)
# Sequence (P01116 other isoform, or with tags, fused parts or gaps G12D): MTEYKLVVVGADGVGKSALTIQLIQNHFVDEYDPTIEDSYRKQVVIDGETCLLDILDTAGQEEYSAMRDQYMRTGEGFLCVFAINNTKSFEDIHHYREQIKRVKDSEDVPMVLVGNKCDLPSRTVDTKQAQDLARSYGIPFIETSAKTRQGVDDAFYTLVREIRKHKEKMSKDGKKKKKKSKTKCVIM
# PROTOCOL TEXT: KRAS G12D TR-FRET Assay
# Assay type: binding
# CONDITION LABEL: read-out: KRAS G12D Binding IC50
Where a name gives a salt, the structure may show the parent alone.
Decide using IC50 alone. Strictly below 0.02 µM: y. Equal to or above 0.02 µM: n.

Answer whether the molecule O=C1CCCc2c(F)ccc3cc(O)cc(c23)-c2ncc3c(nc(OC[C@@]45CCCN4C[C@H](F)C5)nc3c2F)N2CCC[C@H](C2)O1 [Example 41, 2,2,2-trifluoroacetate salt] has IC50 strictly less than 0.02 µM
y

---
Answer whether the molecule CN1C(=O)CC[C@@H]2C[C@@H]2c2c(Cl)cc3[nH]ncc3c2-c2ncc3c(nc(OC[C@@]45CCCN4C[C@H](F)C5)nc3c2F)N2CCC[C@@H]1C2 [Example 128, bis (2,2,2-trifluoroacetate)] has IC50 strictly less than 0.02 µM
n

Answer whether the molecule Cc1cc2[nH]ncc2c2c1CCCC(F)C(=O)N[C@@H]1COCCN(C1)c1nc(OC[C@@]34CCCN3C[C@H](F)C4)nc3c(F)c-2ncc13 (mixture of isomers) [Example 55] has IC50 strictly less than 0.02 µM
y

Answer whether the molecule Fc1c2ncc3c(nc(OC[C@@]45CCCN4C[C@H](F)C5)nc13)N1CCCC(Cc3ncn(n3)CCc3c(Cl)cc4[nH]ncc4c3-2)C1 (stereo partly shown) [Example 232] has IC50 strictly less than 0.02 µM
n

Answer whether the molecule O=C1CCCc2c(F)ccc3cccc(c23)-c2ncc3c(nc(OC[C@@]45CCCN4C[C@H](F)C5)nc3c2F)N2CCOC[C@H](C2)O1 [Example 109] has IC50 strictly less than 0.02 µM
n

Answer whether the molecule O[C@H]1c2ncc(o2)CCc2c(Cl)cc3[nH]ncc3c2-c2ncc3c(nc(OC[C@@]45CCCN4C[C@H](F)C5)nc3c2F)N2CCC[C@@H]1C2 [Example 234] has IC50 strictly less than 0.02 µM
n

Answer whether the molecule CN1C(=O)OCCCc2c(Cl)cc3[nH]ncc3c2-c2ncc3c(nc(OC[C@@]45CCCN4C[C@H](F)C5)nc3c2F)N2CCOC[C@@H]1C2 [Example 178] has IC50 strictly less than 0.02 µM
n

Answer whether the molecule Fc1c2ncc3c(nc(OC[C@@]45CCCN4C[C@H](F)C5)nc13)N1CCO[C@@H](COCCCCc3c(Cl)cc4[nH]ncc4c3-2)C1 [Example 135] has IC50 strictly less than 0.02 µM
y

Answer whether the molecule CN1C(=O)CCCCc2c(Cl)cc3[nH]ncc3c2-c2ncc3c(nc(OC[C@@]45CCCN4C[C@H](F)C5)nc3c2F)N2CCC[C@@H]1C2 [Example 53] has IC50 strictly less than 0.02 µM
y

Answer whether the molecule Fc1c2ncc3c(nc(OC[C@@]45CCCN4C[C@H](F)C5)nc13)N1CCC[C@H](C1)Cn1cc(cn1)/C=C\c1c(Cl)cc3[nH]ncc3c1-2 [Example 147] has IC50 strictly less than 0.02 µM
y
